Where do these numbers come from? They come from patent US12171755B2.

Biological target: PAPD5 (Homo sapiens)
Construct: made in house
Experiment: High-throughput luminescence (KinaseGlo) RNA polyadenylation assay, ATP utilization by recombinant PAPD5
Format: biochemical
Details: Table 4 (entries of Table 5); 33 μM compound; ratio of luminescence with inhibitor to DMSO
property measured: Fold-change determined at compound concentration 33 μM

Record excerpt, results attached:
[[record]]
compound = "CCc1ccc(Cn2c(=O)c3sccc3n3c(=S)[nH]nc23)cc1"
test_target = "PAPD5 (Homo sapiens)"
observed_measurement = 1.7195

[[record]]
compound = "Cc1ccc(NC(=O)c2ccc3c(O)c(S(=O)(=O)c4ccc(Cl)cc4)c(=O)[nH]c3c2)cc1"
test_target = "PAPD5 (Homo sapiens)"
observed_measurement = 1.156

[[record]]
compound = "OCCN(CCO)c1nc(N2CCCCC2)c2nc(N(CCO)CCO)nc(N3CCCCC3)c2n1"
test_target = "PAPD5 (Homo sapiens)"
observed_measurement = 1.098


P = Cn1[nH]c(-c2cccnc2)c2nc(-c3ccccc3OC(F)F)nc1-2
Q = O=C(O)C1Nc2ccc(Cl)cc2C2C=CCC12 (stereo not shown)
# input I need your help: which of the pair P , Q has higher Fold-change determined at compound concentration 33 μM? Response format: the label of the selected entry.
# output Q
(Q: 1.97, P: 1.097)

====

Target: PAPD5 (Homo sapiens, UniProt Q8NDF8)
Construct: made in house
Sequence (Q8NDF8 68-698 isoform Q8NDF8-5): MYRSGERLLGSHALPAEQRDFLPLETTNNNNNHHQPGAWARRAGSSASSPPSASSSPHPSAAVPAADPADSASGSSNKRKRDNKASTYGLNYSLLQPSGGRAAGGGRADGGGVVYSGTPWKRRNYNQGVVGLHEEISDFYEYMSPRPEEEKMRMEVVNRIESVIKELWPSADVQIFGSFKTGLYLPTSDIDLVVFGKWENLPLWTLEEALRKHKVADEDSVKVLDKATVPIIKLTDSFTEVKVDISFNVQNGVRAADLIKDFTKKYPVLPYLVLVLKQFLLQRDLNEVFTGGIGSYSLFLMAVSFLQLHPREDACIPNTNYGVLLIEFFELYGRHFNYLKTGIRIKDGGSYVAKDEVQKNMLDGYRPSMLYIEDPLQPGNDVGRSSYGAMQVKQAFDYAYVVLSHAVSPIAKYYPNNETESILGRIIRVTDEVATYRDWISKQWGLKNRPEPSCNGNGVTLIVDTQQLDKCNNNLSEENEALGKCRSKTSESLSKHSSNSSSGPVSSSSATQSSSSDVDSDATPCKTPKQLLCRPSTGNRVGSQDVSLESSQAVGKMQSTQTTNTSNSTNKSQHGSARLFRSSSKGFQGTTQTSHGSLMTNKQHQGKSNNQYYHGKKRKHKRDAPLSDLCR
Assay: High-throughput luminescence (KinaseGlo) RNA polyadenylation assay, ATP utilization by recombinant PAPD5
Format: biochemical
Conditions: Table 4 (entries of Table 5); 33 μM compound; ratio of luminescence with inhibitor to DMSO
property measured: Fold-change determined at compound concentration 33 μM

[[record]]
molecule = "O=C1c2cnccc2CN1c1cc(F)ccc1F [Entry 212]"
observed_measurement = 1.077

[[record]]
molecule = "COc1ccc(-c2n[nH]c3nc(-c4cc(OC)c(OC)c(OC)c4)cc(C(=O)O)c23)cc1 [Entry 183]"
observed_measurement = 1.152

[[record]]
molecule = "CC(C)c1nnc2ccc(N3CCN(C)CC3)nn12 [Entry 50]"
observed_measurement = 1.336

[[record]]
molecule = "Cc1ccc2c(=O)cc(C(=O)Nc3nnc(C)s3)oc2c1 [Entry 116]"
observed_measurement = 1.459

[[record]]
molecule = "Cc1ccc2c(=O)cc(CSc3ncn[nH]3)[nH]c2c1C [Entry 107]"
observed_measurement = 1.319

[[record]]
molecule = "COc1cc(-c2nc(C(N)=O)c3[nH]c(=O)n(CC4CCCO4)c3n2)ccc1O (stereo not drawn) [Entry 165]"
observed_measurement = 1.224

[[record]]
molecule = "COc1ccc(NS(=O)(=O)c2cc3[nH]c(=O)c(=O)[nH]c3cc2C)cc1Cl [Entry 135]"
observed_measurement = 1.191

[[record]]
molecule = "COc1cc2[nH]c3c(SCC(N)=O)ncnc3c2cc1OC [Entry 224]"
observed_measurement = 1.193

[[record]]
molecule = "CN(C)S(=O)(=O)c1ccc2c(c1)c(C(=O)n1ccnc1)cn2C [Entry 108]"
observed_measurement = 1.256


====

Molecular target: PAPD5 (Homo sapiens)
Construct: made in house
Assay: High-throughput luminescence (KinaseGlo) RNA polyadenylation assay, ATP utilization by recombinant PAPD5
Format: biochemical
Conditions: Table 4 (entries of Table 5); 33 μM compound; ratio of luminescence with inhibitor to DMSO
property measured: Fold-change determined at compound concentration 33 μM

[[record]]
compound = "O=c1c2c([nH]c3nc(CNc4ccc(Br)cc4)nn13)CCC2"
observed_measurement = 1.146

[[record]]
compound = "COc1cccc(NC(=O)c2ccc3c(=O)n4nc(Nc5ccccc5OC)sc4nc3c2)c1"
observed_measurement = 1.096

[[record]]
compound = "O=C(O)c1cccc(Nc2ncnc3ccc(Br)cc23)c1"
observed_measurement = 1.114

[[record]]
compound = "CN1C(=O)C(c2c(-c3ccc4ccccc4c3)[nH]c3[nH]c(=O)[nH]c(=O)c23)c2ccccc21 (stereo not drawn)"
observed_measurement = 1.39

[[record]]
compound = "Cc1ccc(Cl)cc1NC(=O)c1oc2c(c1C)-c1[nH]ncc1CC2"
observed_measurement = 1.278

[[record]]
compound = "Cc1ccc(S(=O)(=O)NC2=NC3=NC(c4ccccc4)=CC(c4ccc(Cl)cc4)N3N2)cc1 (stereo not drawn)"
observed_measurement = 1.12

[[record]]
compound = "COc1ccc(-c2[nH]nc3nc(-c4cc(Br)ccc4OC)cc(C(=O)O)c23)cc1"
observed_measurement = 1.112

[[record]]
compound = "O=c1c(S(=O)(=O)c2cccc(F)c2)c[nH]c2c(F)ccc(Cl)c12"
observed_measurement = 1.16

[[record]]
compound = "Cc1ccc(-c2n[nH]c(=O)c3c2CCCC3)cc1S(=O)(=O)Nc1ccc(S(N)(=O)=O)cc1"
observed_measurement = 1.211

[[record]]
compound = "Cc1ccc(-c2nnc(Nc3ccc(OCC(N)=O)cc3)c3ccccc23)cc1S(=O)(=O)N(C)C"
observed_measurement = 1.324

[[record]]
compound = "CCN(CC)CCNC(=O)c1ccc(Cn2c(=O)c3cccn3c3cccnc32)cc1"
observed_measurement = 1.116

[[record]]
compound = "COCCNC(=O)Cn1cc2c(n1)-c1c(oc(C(=O)N3CCCC3)c1C)CC2"
observed_measurement = 1.374

[[record]]
compound = "COc1cc(NS(=O)(=O)c2ccc3oc(=O)c4ncn(C)c4c3c2)cc(OC)c1"
observed_measurement = 1.207

[[record]]
compound = "O=C(CCCn1c(=O)c2cccn2c2ccc(Br)cc21)N1CCCC1"
observed_measurement = 1.23

[[record]]
compound = "COCc1c(Br)c(C)nc2sc3c(=O)[nH]nnc3c12"
observed_measurement = 1.128

[[record]]
compound = "CC(C)n1cnc2c(Nc3ccc(C(=O)O)cc3)nc(Cl)nc21"
observed_measurement = 1.095

[[record]]
compound = "Cc1ccc(C(=O)Nc2c(-c3ccccc3)nc3ccccn23)cc1C"
observed_measurement = 1.206

[[record]]
compound = "N#Cc1c[nH]n2c(NC3CCCCC3)c(-c3ccccc3F)nc12"
observed_measurement = 1.177


====

Target: PAPD5 (Homo sapiens, UniProt Q8NDF8)
Construct: made in house
Test: High-throughput luminescence (KinaseGlo) RNA polyadenylation assay, ATP utilization by recombinant PAPD5
Type: biochemical
Settings: Table 4 (entries of Table 5); 33 μM compound; ratio of luminescence with inhibitor to DMSO
property measured: Fold-change determined at compound concentration 33 μM

[[record]]
molecule = "NC(=O)C1CCN(c2nc3c(S(=O)(=O)c4ccccc4)nnn3c3ccsc23)CC1"
test_target = "PAPD5 (Homo sapiens, UniProt Q8NDF8)"
observed_measurement = 1.273


P = NC(=O)C1CCN(c2ncnc3sc4c(c23)CCCC4)CC1
Q = Cc1nc(-c2cnccn2)nc2c1CC(=O)N2CC1CCCO1 (stereo not drawn)
# input I need your help: which of the pair P , Q has higher Fold-change determined at compound concentration 33 μM? Response format: the label of the selected entry.
# output P

====

Target: PAPD5 (Homo sapiens)
Construct: made in house
Test: High-throughput luminescence (KinaseGlo) RNA polyadenylation assay, ATP utilization by recombinant PAPD5
Assay type: biochemical
Settings: Table 4 (entries of Table 5); 100 μM compound; ratio of luminescence with inhibitor to DMSO, higher = higher inhibition
property measured: Fold-change determined at compound concentration 100 μM

Record excerpt, results attached:
[[record]]
compound = "O=c1cc(-c2cccc3c2Sc2ccccc2S3)oc(N2CCOCC2)c1"
observed_measurement = 1.471

[[record]]
compound = "N#Cc1c[nH]n2c(NC3CCCCC3)c(-c3ccccc3F)nc12"
observed_measurement = 1.452

[[record]]
compound = "Cc1ccc(Cl)cc1NC(=O)c1oc2c(c1C)-c1[nH]ncc1CC2"
observed_measurement = 1.87


P = Cn1c(=O)c2nc(SCCC(=O)O)n(Cc3ccc(F)cc3)c2n(C)c1=O
Q = CCOC(=O)Cc1cc(=O)oc2cc(O)cc(O)c12
# input I need your help: which of the pair P , Q has higher Fold-change determined at compound concentration 100 μM? Response format: the label of the selected entry.
# output Q
(Q: 1.957, P: 1.26)

a = CCn1cc(C(=O)O)c(=O)c2cc(F)c(N3CCN(C)CC3)cc21
b = Cc1cc(C)c2c(=O)cc(C(=O)Nc3ccc(S(=O)(=O)Nc4onc(C)c4C)cc3)oc2c1
c = N#C/C(=C\c1ccc(-c2ccc(C(=O)O)cc2)o1)C(=O)Nc1ccccc1C(=O)O
# input List by increasing Fold-change determined at compound concentration 100 μM. Answer format: the labels, ordered as requested.
# output a, b, c
(a: 1.218, b: 1.777, c: 2.572)

====

Molecular target: PAPD5 (Homo sapiens)
Construct: made in house
Test: High-throughput luminescence (KinaseGlo) RNA polyadenylation assay, ATP utilization by recombinant PAPD5
Type: biochemical
Conditions: Table 4 (entries of Table 5); 33 μM compound; ratio of luminescence with inhibitor to DMSO
property measured: Fold-change determined at compound concentration 33 μM

Record excerpt, results attached:
[[record]]
compound = "O=C(Cn1nc(Cc2ccncc2)c2ccccc2c1=O)N1CC=C(c2ccccc2)CC1"
observed_measurement = 1.093

[[record]]
compound = "Cn1c(=O)c2nc(SCCC(=O)O)n(Cc3ccc(F)cc3)c2n(C)c1=O"
observed_measurement = 1.05

[[record]]
compound = "Cc1cccc2c(=O)cc(C(=O)Nc3nnc(C(C)C)s3)oc12"
observed_measurement = 1.177


A = COC(=O)c1cnn2c(=O)cc(CS(=O)(=O)c3ccc(C)cc3C)[nH]c12
B = COc1ccc(Nc2ncnc3sc(C(=O)O)c(C)c23)cc1OC
# input Hey, between A and B which has a smaller measured Fold-change determined at compound concentration 33 μM? Response format: the label of the selected entry.
# output A
